# System: SW-620 colon
# test details: NCI-60 one-dose screen, 48 h
# experimental setup: 10 µM unless noted
Compounds without any hit were thinned out: in the full panel of roughly 83,000, 20% have a hit. Activity calls are given as the source filed them. Rule for the calls: active = growth percent below 10; inactive = the rest.
Labels: 1 for active, -1 for inactive

{"columns": ["compound", "discrete label"],
 "data": [
  ["Cc1ccc(-c2cc3c(cc2O)C2CCCCC2(N2CCOCC2)O3)cc1 (stereo not given)", -1],
  ["Cc1cc(NCc2cc(Nc3ccnc4cc(Cl)ccc34)ccc2F)nc(N2CCN(C)CC2)n1", 1],
  ["Cc1ccc(Cl)c(NS(=O)(=O)c2ccc(-c3cnc(C4CC4)o3)cc2)c1", -1],
  ["COCN1CCC2N(COC)CCC3N(COC)CCC1N23 (stereo not given)", -1],
  ["CC1(c2ccccc2)NC(=O)N(NC(=O)CSc2nc(-c3cccs3)nc3ccccc23)C1=O (stereo not given)", -1],
  ["CCCCc1ccc(Nc2ccc(Nc3ccc(CCCC)cc3S(=O)(=O)O)c3c2C(=O)c2ccccc2C3=O)c(S(=O)(=O)O)c1", -1],
  ["CCOc1ccccc1-n1c(CN2CCN(C(=O)COc3ccc(CNCCCCCCN4C5CCCC4CC(OC(=O)Nc4cc(C)ccc4OC)C5)cc3)CC2)nc2ccccc2c1=O (stereo not given)", 1],
  ["NC(N)=NN=C(c1ccccc1)c1ccccc1", -1],
  ["Cc1ccc(N2CCN(C(=S)c3cccs3)CC2)cc1", -1],
  ["CC(=O)c1nc(Nc2ccc(C)cc2)sc1C", -1]
]}

* * *

# Tested on: SK-MEL-2 melanoma
# test details: NCI-60 one-dose screen, 48 h (100 = growth as untreated, 0 = no growth, -100 = all killed)
# experimental setup: 10 µM unless noted
The panel holds about 83,000 compounds, 20% with a hit somewhere; the sample as a whole holds those more often.
Response field label: string, one of 1 (growth strictly below 80%) or 0.

{"columns": ["compound", "discrete label"],
 "data": [
  ["Cc1ccc(-c2cc(-c3cccnc3)[nH]c(=O)c2C#N)cc1", 0],
  ["N#CCN1C(=O)C2C3=C(CCCC3)SC2N=C1CN1CCCC1 (stereo unspecified)", 0],
  ["Cc1ccc2nc3ccccc3c(NCc3ccccc3)c2c1", 0],
  ["C=CCSc1nc2ccccc2cc1/C=N/O", 0],
  ["NC(=N\\N=C/c1ccccc1[N+](=O)[O-])/C(N)=N\\N=C/c1ccccc1[N+](=O)[O-]", 0],
  ["Cc1ccc(S(=O)(=O)n2cc(CNc3ccc(N4CCOCC4=O)cc3)c3ccccc32)cc1", 0],
  ["O=C(CSc1nnc(-c2ccc(NC(=O)c3cccnc3)cc2)o1)N[C@@H](Cc1ccc(O)cc1)C(=O)O", 0],
  ["COc1ccc(C2C(c3nn[nH]n3)=C(N)Oc3c2ccc2ccccc32)cc1 (stereo unspecified)", 1],
  ["CCN1CCN(c2nc(C)cc(NCc3cc(Nc4ccnc5cc(Cl)ccc45)ccc3F)n2)CC1", 1],
  ["Cc1ccc(N2CCN(C(=S)c3cccs3)CC2)cc1", 0],
  ["Cc1cc(NCCCCNc2ccnc3cc(Cl)ccc23)nc(Nc2ccc(C(=O)N3CCCCC3)cc2)n1", 1],
  ["O=C(NCCCNc1cc(-c2cn(-c3ccccc3)nc2-c2cccc(O)c2)ccn1)c1ccc(F)cc1", 1],
  ["CCN(CC)CCCNc1ccc(Nc2ccc(OC)cc2)cc1", 0],
  ["OC(c1cccc(-n2ccc(C(F)(F)F)n2)c1)c1cnccc1NC1CCCCCC1 (stereo unspecified)", 1],
  ["Cc1ccc(/C=C/c2c(C(=O)/C=C/c3ccc(C(F)(F)F)cc3)c(C)nc3ccccc23)cc1", 1],
  ["CC(=O)OC1CCC2(C)C(=CC3C4CCC(=O)C4(C)CCC32)C1 (stereo unspecified)", 0],
  ["CC1CC(C(C)(C)C)C(=O)C(C(C)(C)C)C1 (stereo unspecified)", 0],
  ["Cc1nc2ccccc2n1CC1NC(=O)NC1=O (stereo unspecified)", 0],
  ["COc1ccc2c(c1)[nH]c(=O)c1c3cccnc3cn21", 1],
  ["Cc1ccc(S(=O)(=O)Oc2cc(OS(=O)(=O)c3ccc(C)cc3)cc(OS(=O)(=O)c3ccc(C)cc3)c2)cc1", 0],
  ["Cc1ccccc1NC(=O)N/C(N)=N/c1nc(C)c(C)s1", 1],
  ["CCCCc1ccc(Nc2ccc(Nc3ccc(CCCC)cc3S(=O)(=O)O)c3c2C(=O)c2ccccc2C3=O)c(S(=O)(=O)O)c1", 1],
  ["COc1ccc(-c2nc3c(N)c(CO)c(C)nc3o2)cc1", 0],
  ["N#CC1=C(/N=C/c2ccccc2)Oc2c(ccc3ccccc23)C1c1ccccc1 (stereo unspecified)", 1],
  ["COc1ccc(NC(=O)CSc2nc(C)c(C(C)=O)n2-c2ccc(Cl)cc2)cc1", 0],
  ["O=C(c1ccccc1)N1N=C(c2ccccc2)CC1c1nnc2n(Cc3ccccc3)c(=O)c3c4c(sc3n12)CCCC4 (stereo unspecified)", 1],
  ["O=C(/C=C/c1cccc(O)c1)c1cccc(-n2cc(-c3ccc4ccccc4c3)[nH]c2=O)c1", 0],
  ["CC/C=C1/C(=O)C=C[C@@H]1C/C=C\\CCCC(=O)O", 0],
  ["CC(C)Sc1nc(NNC(N)=S)c(C#N)c(-c2ccc(F)cc2)n1", 0],
  ["c1coc(-c2c3ccc(=[N+]4CCCCC4)cc-3oc3cc(N4CCCCC4)ccc23)c1", 1],
  ["CCCCCS(=O)(=O)Nc1ccc(C(=O)O)cc1", 0],
  ["CC(C)(C)c1ccc(/C=C/C(=O)Nc2ccc(O)cc2)cc1", 0],
  ["CN1CCN(CCCOc2ccc3nc(Nc4ccc(F)c(F)c4)ccc3c2)CC1", 1],
  ["O=C(O)c1ccc2c(c1Cl)C(=O)c1ccccc1C2=O", 1],
  ["Nc1ccc2c(c1)c(N)nn2C(=O)Nc1ccc(Cc2ccccc2)cc1", 1],
  ["O=Cc1c[nH]c2ccc(-c3csc4ccccc34)cc12", 0],
  ["COc1ccc(-c2cc(-c3ccc(Nc4nc(Nc5ccc(Cl)cc5)nc(Nc5ccc(Cl)cc5)n4)cc3)nc(N)c2C#N)cc1", 1],
  ["CC(C)(C)n1cc(-c2ccnc(NCCCNS(=O)(=O)c3ccccc3)c2)c(-c2ccccc2)n1", 0],
  ["CCCCn1c(=O)c2c(nc3n2CCCN3CCc2ccc(OCC(=O)NCCN(CC)CC)cc2)n(CCCC)c1=O", 1],
  ["COc1ccc2[nH]c(O)c(/C=c3/cc4c(c(-c5ccc(F)c(OC)c5)n3)=Nc3ccccc3-4)c2c1", 0]
]}

* * *

# Tested on: NCI-H460 lung
# test details: NCI-60 one-dose screen, 48 h
# experimental setup: 10 µM unless noted
About 83,000 compounds went through this panel and 20% of them were active in at least one assay; those are over-represented in the sample as a whole. The source made the active and inactive calls. The calls were made as follows: active = growth percent below 10; inactive = the rest.
Labels: true for active, false for inactive

{"columns": ["molecule", "discrete label"],
 "data": [
  ["O=C(N=c1oc2ccccc2cc1-c1cc2ccccc2[nH]1)c1ccc(Cl)cc1", "false"],
  ["c1ccc(-c2nc([P+](c3ccccc3)(c3ccccc3)c3ccccc3)c(N3CCOCC3)o2)cc1", "false"],
  ["COc1ccc(-c2[nH]c(=S)n(C(CC3(C)NCC(=O)N3n3c(-c4ccccc4)cc(C)nc3=S)c3ccc(OC)cc3)c(=O)c2Br)cc1 (stereo unspecified)", "false"],
  ["Cc1ccc(Cc2cnc(NC(=O)c3ccc4noc(-c5ccccc5)c4c3)s2)cc1", "false"],
  ["CC(C)(C)OC(=O)Nc1ccc2c(c1)C(NC(=O)Nc1cccc(C#N)c1)CC(C)(C)O2 (stereo unspecified)", "false"],
  ["O=C1/C(=C2/C=Nc3ccccc32)N(O)c2ccccc21", "false"],
  ["Cn1c2c(c3ccc(Cl)c(Cl)c31)C(C#N)C1(CCNCC1)NC2=O (stereo unspecified)", "false"],
  ["Cc1ccc(C(=NN=C(N)N)c2ccc(C)cc2)cc1", "true"],
  ["Cc1cc(=O)[nH]c(N=Nc2c(O)[nH]c3ccccc23)n1", "false"],
  ["Cc1ccc(C(=O)CSc2nc(-c3ccc(Br)cc3)c(C#N)c(=O)[nH]2)cc1", "false"],
  ["COc1ccccc1N1C(=O)/C(=C/C2=Cc3ccccc3OC2)SC1=S", "false"],
  ["Cc1cc(C)c2c(-c3nnc(N)s3)cc(=O)oc2c1", "false"],
  ["c1ccc2c(c1)nc(CN1CCOCC1)n1cc(N3CCCC3)nc21", "false"],
  ["COc1cccc(Nc2nccc(Nc3ccc4[nH]ncc4c3)n2)c1", "true"],
  ["COc1cc(OC)cc(C2CC(=O)Nc3c2c(C)nn3-c2nc3ccccc3[nH]2)c1 (stereo unspecified)", "true"],
  ["CCN(CC)CCCCCCNc1cc(OC)c(Cl)c2cccnc12", "false"],
  ["CN(c1ccccc1)c1ccc2c(c1)OCCC21CC1Nc1cnccc1C(=O)O (stereo unspecified)", "false"],
  ["COc1ccc(Cl)cc1NC(=O)C(Br)C(Br)C(=O)O (stereo unspecified)", "false"],
  ["COc1cccc(-c2nn(-c3ccccc3)cc2-c2ccnc(NCCCNC(=O)c3ccccc3)c2)c1", "false"],
  ["CN(C)CCCn1c(=O)c2ccccc2c2ccccc21", "false"],
  ["O=C1CC(N2C(=O)/C(=C/C(Cl)=C\\c3ccc([N+](=O)[O-])cc3)SC2=S)C(=O)N1c1ccc(O)cc1 (stereo unspecified)", "true"]
]}
